# credit: PubChem BioAssay (NCI)

# Tested on: MDA-MB-468 breast
# TEST PROTOCOL: NCI-60 one-dose screen, 48 h
# MEASUREMENT CONTEXT: 10 µM unless noted
The panel holds about 83,000 compounds, 20% with a hit somewhere; the sample as a whole holds those more often. Activity calls are given as the source filed them. The calls were made as follows: active = growth percent below 10; inactive = the rest.
Possible outcomes: class 1 for active, class 0 for inactive

COMPOUND	LABEL CLASS
CCO/C=C1\SC(=S)N(c2cccc(C)c2)C1=O	class 0
Fc1ccc([I+]c2ccc(F)cc2)cc1	class 0
COc1cc(-c2nc3cc(Cl)c(Cl)cc3[nH]2)ccc1OCC(=O)N=Nc1c(O)[nH]c2ccc(Cl)cc12	class 1
COC1=CC(c2ccc[nH]2)=N/C1=C\c1[nH]c(C)c(C(=O)OC(C)C)c1C	class 1
COc1ccc(-c2nnc3c4[nH]cnc4ncn23)c(OC)c1	class 1
Cc1cc(C)c2c(n1)sc1c(Nc3ccc(Cl)cc3Cl)ncnc12	class 0
COc1cc(/C=C2\CN(C(=O)CCN3CCC(=NO)CC3)C/C(=C\c3cc(OC)c(OC)c(OC)c3)C2=O)cc(OC)c1OC	class 1
COc1cc(C2CC(c3ccc(Cl)cc3)=NN2C=O)ccc1OS(=O)(=O)c1ccc(C)cc1 (stereo not given)	class 0
NC1=C(Br)C(=O)c2ncccc2C1=O	class 1
N=C(N)c1ccc(-c2ccc(-c3cc(Cl)cc(Cl)c3)s2)s1	class 1
CCN(C(=O)CCl)C(C)(C)C(SSSC(c1ccc(Cl)cc1)C(C)(C)N(CC)C(=O)CCl)c1ccc(Cl)cc1 (stereo not given)	class 1
Oc1c(C(Nc2ccccn2)c2cccc(Oc3ccccc3)c2)ccc2cccnc12 (stereo not given)	class 1
O=c1ccc(N=Nc2ccc([N+](=O)[O-])cc2)ccc1O	class 1
O=C(N/N=C/C=C/c1ccc([N+](=O)[O-])o1)c1cc2ccccc2cc1O	class 1
CC(C)c1cccc(C#N)c1	class 0
Cc1ccc(C2CC(c3cccc(Nc4ccncc4)c3)=NN2c2cc(Cl)cc(Cl)c2)cc1 (stereo not given)	class 1
O=S(=O)(Nc1cc(Sc2cccc3cccnc23)c(O)c2ccccc12)c1ccc(F)cc1	class 1
O=C(N/N=C/c1ccccc1)C(Oc1ccccc1)c1ccccc1 (stereo not given)	class 0
CCC/C(=N/NC(N)=O)c1ccco1	class 0
COc1cc2nc(Nc3cccc(F)c3)nc(Nc3cc(C)[nH]n3)c2cc1OC	class 1
O=S(=O)(c1ccccc1)N1CCCN(c2nc(-c3ccccc3)nc3nc(-c4ccccc4)oc23)CC1	class 0
COc1cc(-c2nc3sccn3c2-c2ccnc(NCCNS(=O)(=O)c3ccccc3)n2)ccc1F	class 0
CCCC[P+](c1ccccc1)(c1ccccc1)c1ccccc1	class 1
C#Cc1ccc(-n2c(/C=C/c3cc(OC)cc(OC)c3)nc3ncccc3c2=O)cc1	class 0
COc1cc2nc(Cl)nc(Nc3cccc(C(=O)/C=C/c4ccc(F)cc4)c3)c2cc1OC	class 0
CCOc1nc(-c2ccccc2)cc2c(O)c(C(=O)NN)[nH]c(=O)c12	class 0
O=C1/C(=C/c2ccc(Cl)cc2)COc2ccc(O)c(O)c21	class 1
C=C1C(=O)O[C@H]2[C@H]1CC/C(COC(=O)CSCSCC(=O)OC/C1=C/CC[C@@]3(C)O[C@H]3[C@H]3OC(=O)C(=C)[C@@H]3CC1)=C\CC[C@@]1(C)O[C@@H]21	class 1
O=C(Nc1ccsc1C(=O)NC1CCCCC1)c1ccc(F)cc1	class 0
COC(=O)c1ccc2oc(NC(=O)c3ccc(Nc4ccc([N+](=O)[O-])cc4C)c([N+](=O)[O-])c3)nc2c1	class 0
COc1cc(/C=C/C(=O)c2c(-c3ccc(Cl)cc3)nc3sc(C)nn23)cc(OC)c1OC	class 0
NS(=O)(=O)c1ccccc1NC(=O)Nc1nc2ccccc2s1	class 0
CCOC(=O)c1c(NCC(=O)Nc2ccc(Br)cc2)sc2c1CCCC2	class 1
CC(C)NS(=O)(=O)c1cccc(-c2ccc3c(=O)n(CCCN)c4c(c3c2)C(=O)c2ccccc2-4)c1	class 0
C=C1C(=O)O[C@H]2[C@H]1CC/C(COC(=O)NCC(C)c1ccc(CC(C)C)cc1)=C\CC[C@@]1(C)O[C@@H]21 (stereo not given in full)	class 1
COc1cc(-c2nn(C)nc2-c2cc3ccccc3s2)cc(OC)c1OC	class 0
COc1ccc(OC)c(Nc2nc3nonc3nc2Nc2cccc(Br)c2)c1	class 1
O=C(Nc1ccc2c(ccn2Cc2ccccn2)c1)c1cnccn1	class 0
CCOC(=O)c1c2c(cn1Cc1ccccc1)-c1oncc1CC2	class 0
C#CCOc1ccc(C2=NN(CCCC)C3N=C(Cl)c4ncn(CCCC)c4N23)cc1OCC#C (stereo not given)	class 0

====

# System: MDA-MB-468 breast
# TEST PROTOCOL: NCI-60 one-dose screen, 48 h
# MEASUREMENT CONTEXT: 10 µM unless noted
# Procedure: Growth inhibition of the MDA-MB-468 human Breast tumor cell line is measured as a screen for anti-cancer activity. Cells are grown in 96 well plates and exposed to the test compound for 48 hours. Compounds are tested at a single concentration, which is 10^-5 M for most compounds. The reported endpoint is percent growth (GI% or GIPRCNT), where numbers from 0 - 100% represent growth inhibition, and numbers from -100% - 0 represent cell death. […]
Compounds without any hit were thinned out: in the full panel of roughly 83,000, 20% have a hit. Activity calls are given as the source filed them. Rule for the calls: active = growth percent below 10; inactive = the rest.
Possible outcomes: active, inactive

MOLECULE	LABEL CLASS
CC1CCCCN1CCCNC(=O)c1ccc2c(c1)sc1nc(-c3ccc(F)cc3)cn12 (centres undefined)	inactive
CC1(C)CC[C@]2(C(=O)O)CC[C@]3(C)C(=CCC4[C@@]5(C)C[C@@H](O)[C@@H]6OC(c7cccc(F)c7)OC[C@@]6(C)C5CC[C@]43C)C2C1 (some centres undefined)	inactive
COc1ccc(-c2c(N)n[nH]c2-c2cc(OC)c(OC)c(OC)c2)cc1	active
C/C(=N\O)[C@H]1C[C@]23CC[C@]4(C)[C@H](CC[C@@H]5[C@@]6(C)CC/C(=N/O)C(C)(C)[C@@H]6CC[C@]54C)[C@H]2[C@H](C)C1(C)OC3	inactive
CC(C)=NNc1ncnc2c1ncn2C1OC(CO)C(O)C1O (centres undefined)	inactive
CC1=C(/C=C/C(C)=C/C=C(C(=O)O)\C(C)=C\C(=O)O)C(C)(C)CCC1	inactive
Clc1ccc(/C=N\N=C\c2ccc(Cl)c(Cl)c2)cc1Cl	inactive
NS(=O)(=O)c1ccc(CCN2C(=O)c3cc(Cl)c(Cl)cc3C2=O)cc1	inactive
Cc1cccc(Cc2cnc(NC(=O)CCCOc3ccc(Cl)cc3)s2)c1	active

====

# Test system: MDA-MB-468 breast
# TEST PROTOCOL: NCI-60 one-dose screen, 48 h (100 = growth as untreated, 0 = no growth, -100 = all killed)
# MEASUREMENT CONTEXT: 10 µM unless noted
The panel holds about 83,000 compounds, 20% with a hit somewhere; the sample as a whole holds those more often.
# key: entry, value: growth
RESULT TYPE: growth (%)

COMPOUND	ASSAYED TARGET	RESULT TYPE	UNITS OF MEASURE	QUANTITATIVE READOUT
CC[C@@]1(C(N)=O)CC2C=CC1C2 (stereo not given in full)	MDA-MB-468 breast	growth	%	103
NS(=O)(=O)c1ccc(NC(=O)/C(=C\c2ccc(Cl)cc2Cl)NC(=O)c2ccccc2)cc1	MDA-MB-468 breast	growth	%	110
Cc1ccc(NC(=O)c2nc(S(C)(=O)=O)oc2-c2ccc(F)cc2)cc1Nc1ccc2ncn(C)c(=O)c2c1	MDA-MB-468 breast	growth	%	16.8
CCOC(=O)/C(C#N)=C1/C(=O)Nc2ccccc21	MDA-MB-468 breast	growth	%	134
O=C(O)c1ccc(-c2nn(-c3ccc(C(=O)O)cc3)cc2CNc2ccc(Br)cc2)cc1	MDA-MB-468 breast	growth	%	114
O=S(=O)(NCCNc1nccc(-n2cnc3ccccc32)n1)c1ccc(Br)cc1	MDA-MB-468 breast	growth	%	84
Cn1c(-c2nonc2NC(=O)c2ccc(F)cc2)nc2ccccc21	MDA-MB-468 breast	growth	%	99.5
CC1=N[C@@H]2CN(C(=O)OC(C)(C)C)C[C@@H]2n2c1cc1ccccc1c2=O	MDA-MB-468 breast	growth	%	111
OC(c1ccc(Cl)cc1)(c1ccc(Cl)cc1)C(O)(c1ccc(Cl)cc1)c1ccc(Cl)cc1	MDA-MB-468 breast	growth	%	12.6
O=C(NCC(c1ccsc1)N1CCCCCC1)c1ccc(C(F)(F)F)cc1 (stereo not given)	MDA-MB-468 breast	growth	%	95.3
COc1ccc(-c2cnnn2-c2cc(OC)c3c(c2)OCO3)cc1	MDA-MB-468 breast	growth	%	40.9
COc1cc(/C=C/c2cc(/C=C/c3ccc(O)c(OC)c3)n(-c3c(Cl)cccc3Cl)c(=O)n2)ccc1O	MDA-MB-468 breast	growth	%	29.6
C/C(=N\NC(N)=S)c1nnn(-c2ccc([N+](=O)[O-])cc2)c1C	MDA-MB-468 breast	growth	%	89.3
CC(C)OC(=O)Nc1ccc(-c2nc(-c3cccc(OCCN4CCOCC4)c3)c(-c3ccnc(Br)c3)[nH]2)cc1	MDA-MB-468 breast	growth	%	-1.08
COc1ccc(Cn2cc3c(c2-c2ccc(OC)cc2)CCc2cnoc2-3)cc1	MDA-MB-468 breast	growth	%	-7.25
CCN1C(=O)N(CC)C2C1NN=c1s/c(=C\c3cccs3)c(=O)n12 (stereo not given)	MDA-MB-468 breast	growth	%	15.3
Cc1cccc2c3c(sc12)C(c1ccc(F)cc1)C(C#N)=C(/N=C/c1ccc(Cl)cc1)O3 (stereo not given)	MDA-MB-468 breast	growth	%	36.2
CCOC(=O)c1cc(C(=O)c2ccc(OC)c(OC)c2)n2ccc(/C=C/c3cc[n+](CC(=O)c4ccc(OC)c(OC)c4)cc3)cc12	MDA-MB-468 breast	growth	%	71.9
COc1nc2ccc(C)cc2cc1/C=[N+](\[O-])c1ccccc1	MDA-MB-468 breast	growth	%	79.3
CN(C)c1ccc(N=Nc2ccc3ccccc3c2)cc1	MDA-MB-468 breast	growth	%	5.06
